// reported pIC50 per item
test-method-notes: Inhibitory activity was determined against Neuraminidase A from influenza virus A/Tokyo/3/67
Units for pIC50: none; it is -log10 of a concentration expressed in mol/L.

# example entries with known answers
CC(C)N(CCCCC(=O)O)C(=O)N1C[C@H](N)[C@H](C(=O)O)C1    5.89
CC(C)N(CCCC(=O)O)C(=O)N1C[C@H](N)[C@H](C(=O)O)C1    4.72
CCCN(CCC)C(=O)N1C[C@H](N)[C@H](C(=O)O)C1    4.49
CC(C)N(CCO)C(=O)N1C[C@H](N)[C@H](C(=O)O)C1    4.68

Endpoint output: pIC50 of `CC(C)N(C(=O)N1C[C@H](C(=O)O)[C@H](N=C(N)N)C1)C(C)C` . Value?
4.89
